- System: OVCAR4
- Experiment Summary: Euclidean distance of Cell Painting phenotypic profile (signed KS, 77 features) to DMSO centroid (dimensionless distance); 5 or 10 uM (library dependent); higher = stronger phenotypic change vs DMSO (phenoactivity)
- Assay Setup: 48 h
Counter-ions that a name gives are not always drawn.
Reported values of Euclidean distance for individual entries

{"Compound": "CC(=O)N(O)CCCCCNC(=O)CCC(=O)N(O)CCCCCNC(=O)CCC(=O)N(O)CCCCCN [Deferoxamine mesylate]", "Assayed System": "OVCAR4", "Euclidean distance": 2.86}
{"Compound": "C=C1CC[C@H](O)C/C1=C/C=C1\\CCC[C@]2(C)[C@@H]([C@H](C)CCCC(C)(C)O)CC[C@@H]12", "Assayed System": "OVCAR4", "Euclidean distance": 2.24}
{"Compound": "CN(C)[C@@H]1C(O)=C(C(N)=O)C(=O)[C@@]2(O)C(O)=C3C(=O)c4c(O)ccc(Cl)c4[C@@](C)(O)[C@H]3C[C@@H]12 [Chlortetracycline HCl]", "Assayed System": "OVCAR4", "Euclidean distance": 1.05}

Just for reference, the supplement of paper PMC10127200 is where these values come from.
